Where do the numbers come from? From PubChem BioAssay (NCI).

I'd appreciate it if you could supply growth inhibition values for the items below.
- ASSAY_INFO: NCI Yeast Anticancer Drug Screen. Data for the mlh1 rad18 strain (AID 175)
- MEASUREMENT_CONTEXT: S. cerevisiae mlh1 rad18 strain growth inhibition; at 50.0 µM; active compounds read high
The panel holds about 79,000 compounds, 15% with a hit somewhere; the sample as a whole holds those more often. Calls of active or inactive are those of the source. Cut-off read from the data, not from the text of the source: active = growth inhibition above about 70%; inactive = the rest.

CCOC(=O)C(Cc1ccc(OCc2ccccc2)c(OCc2ccccc2)c1)(NC=O)C(=O)OCC ... 9% (inactive)
Nc1ccn([C@@H](C=O)C[C@@H](C=O)CO)c(=O)n1 ... -45.6% (inactive)
O=C(c1cccc([N+](=O)[O-])c1)N1CCOCC1 ... 14.1% (inactive)
COc1cc(C(=O)N2C3C4CCC(C)(OC4(C)C)C32)cc(OC)c1OC (configuration not stated) ... -8.9% (inactive)
CCn1c2ccccc2c2cc(N)c(N=Nc3ccc(-c4ccc(N)c(OC)c4)cc3OC)cc21 ... 29.8% (inactive)
CCCCCCCCC1CC(=O)OC1=O (configuration not stated) ... -2.35% (inactive)

Please look at the items below and tell me growth inhibition for each one, in order.
1. COc1ccc(/C=N/O)cc1OC
2. Cc1cccc(Cl)c1OCC(=O)Nc1ccccc1
3. O=C(O)c1c(Br)c(Br)c(Br)c(Br)c1C(=O)Nc1ccc(Cl)cc1C(F)(F)F
4. O=S1C=Cc2ccccc21 (configuration not stated)
5. CCOC(N)=C(C#N)C#N

# output
1: 5.95% (inactive); 2: -3.65% (inactive); 3: 13.3% (inactive); 4: 7.1% (inactive); 5: 11.8% (inactive)

# input Given CCCNC(=O)c1ccccc1O , respond with its growth inhibition.
# output 7.45% (inactive)

###

I'd appreciate it if you could supply growth inhibition values for the items below.
- ASSAY_INFO: NCI Yeast Anticancer Drug Screen. Data for the bub3 strain (AID 167)
- MEASUREMENT_CONTEXT: S. cerevisiae bub3 mutant strain, at 50.0 µM, active compounds read high
The panel holds about 79,000 compounds, 15% with a hit somewhere; the sample as a whole holds those more often.
Answers are plain numbers, in %.

Examples from the recorded data:
COC(=O)C1CN(Cc2ccccc2)C(=O)C1=O (configuration not stated) ... 3.95
c1ccc(C2=C(c3ccccc3)c3ccccc3C2)cc1 ... -8.85
Oc1cc2c(cc1C(c1ccc(F)cc1)N1CCCC1)OCO2 (configuration not stated) ... 37.9
COC(=O)C(Cc1nc2ccccc2[nH]c1=O)C(NO)C(=O)Nc1c(Cl)cc([N+](=O)[O-])cc1Cl (configuration not stated) ... 22.2
Cc1ccc(CNC(=O)NC(C)(C)C)cc1 ... 1.85

Please look at the items below and tell me growth inhibition for each one, in order.
1. C=C(CN(C)C)c1ccccn1
2. CS(=O)(=O)c1ccc2c(c1)-c1ccc([N+](=O)[O-])cc1C2=O
3. Sc1ccc2ccccc2c1
4. CC(C)(NC(=O)OC12CC3CC(CC(C3)C1)C2)C(=O)O
5. Clc1ccc(C2SCCS2)c(Cl)c1
6. Cc1cccc(C)c1NC(=O)C(=O)CC(=O)/C=C/c1ccccc1
7. CSc1ncc(Br)c(Sc2nccn2C)n1

# output
-13.3
-4
-17.1
3.45
33.8
-23.1
-12
